Entries and their measured Kd follow.
# ASSAYED_SYSTEM: recombinant human KRAS^G12D protein (Homo sapiens, UniProt P01116, G12D)
# Sequence (P01116 1-188 isoform P01116-2 G12D): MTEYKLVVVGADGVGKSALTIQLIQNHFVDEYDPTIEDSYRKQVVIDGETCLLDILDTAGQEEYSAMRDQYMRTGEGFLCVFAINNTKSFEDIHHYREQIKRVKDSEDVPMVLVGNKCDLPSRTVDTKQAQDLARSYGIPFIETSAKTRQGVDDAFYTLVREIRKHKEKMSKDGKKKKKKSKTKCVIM
# METHOD_SUMMARY: Temperature-dependent Fluorescence (TdF) KRAS^G12D protein binding assay
# CONDITION_NOTES: 6 μM KRAS^G12D Protein, 10 μM compound, Sypro Orange; Kd calculated from fluorescent shift

COMPOUND	Kd
CCc1cccc2c(F)c(O)cc(-c3nc(C)c4c(N5CC6CCC(C5)N6)nc(OC[C@@]56CCCN5C[C@H](F)C6)nc4c3F)c12 [Compound 124]	≤ 500 nM
CN1CCC[C@H]1COc1nc(N2CC3CCC(C2)N3)c2[nH]c(=O)c(-c3cc(O)cc4ccccc34)cc2n1 [Compound 92]	500 to 5000 nM
CC(=O)N1CCN(c2nc(OC[C@@]34CCCN3C[C@H](F)C4)nc3c(F)c(-c4cc(O)cc5cccc(Cl)c45)ncc23)CC1 [Compound 74]	≤ 500 nM
Nc1cccc(F)c1-c1ncc2c(N3CC4CCC(C3)N4)nc(OCC34CCCN3CCC4)cc2n1 [Compound 26]	> 5000 nM
Oc1cc(-c2ncc3c(N4CC5CCC(C4)N5)nc(OCC45CCCN4CCC5)nc3c2F)c2ccccc2c1 [Compound 12]	≤ 500 nM
Fc1c(-c2cccc3cccc(Cl)c23)ncc2c(N3CC4CCC(C3)N4)nc(OC[C@@]34CCCN3C[C@H](F)C4)nc12 [Compound 30]	≤ 500 nM
CN1CCC[C@H]1COc1nc(N2CCNCC2)c2cnc(-c3ccc(F)c4sc(N)nc34)c(F)c2n1 [Compound 73]	≤ 500 nM
CN(C)CCCOc1nc(N2CC3CCC(C2)N3)c2cc(Cl)c(-c3cccc4ccccc34)nc2n1 [Compound 4]	> 5000 nM
CCc1cccc2cc(O)cc(-c3nc(C)c4c(N5CC6CCC(C5)N6)nc(OC[C@@]56CCCN5C[C@H](F)C6)nc4c3F)c12 [Compound 85]	≤ 500 nM
CN(C)CCCn1c(=O)nc(N2CC3CCC(C2)N3)c2cc(F)c(-c3cccc4cccc(Cl)c34)nc21 [Compound 19]	> 5000 nM
Fc1c(-c2cccc3cccc(Cl)c23)ncc2c(N3CC4CCC(C3)N4)nc(OCC34CCCN3CCC4)nc12 [Compound 6]	≤ 500 nM
Cc1cc(N)nc(-c2nc(C)c3c(N4CC5CCC(C4)N5)nc(OC[C@@]45CCCN4C[C@H](F)C5)nc3c2F)c1C1CC1 [Compound 102]	> 5000 nM
C#Cc1c(F)ccc2cc(O)cc(-c3nc(OC(C)C)c4c(N5CC6CCC(C5)N6)nc(OC[C@@H]5CCCN5C)nc4c3F)c12 [Compound 195]	≤ 500 nM
Fc1cc2c(N3CCNCC3)nc(OCC34CCCN3CCC4)nc2nc1-c1cccc2cccc(Cl)c12 [Compound 5]	> 5000 nM

###

# ASSAYED_SYSTEM: Ba/F3_KRAS^G12D cells (Homo sapiens, UniProt P01116, G12D, cells depend on it)
# Sequence (P01116 whole entry G12D): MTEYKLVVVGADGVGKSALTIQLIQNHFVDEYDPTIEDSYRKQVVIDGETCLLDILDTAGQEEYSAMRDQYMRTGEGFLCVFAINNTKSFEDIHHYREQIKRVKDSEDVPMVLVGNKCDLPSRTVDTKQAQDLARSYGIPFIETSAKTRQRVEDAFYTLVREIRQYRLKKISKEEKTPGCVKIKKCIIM
# METHOD_SUMMARY: Ba/F3 KRAS^G12D cell proliferation assay (cell-titer Glo)
# Format: cell-based
# CONDITION_NOTES: cell growth inhibition, treated with the compounds for 3 days, read-out: BaF3_KRAS^G12D IC50
# Description: Cells were seeded at a density of 5×10^3 per well into 96-well plate and incubated overnight. Serial diluted compounds were added to each well. Cells were treated with the compounds for 3 days, after which cell-titer Glo reagent (Promega #G7572) was used to assess cell proliferation. The luminescence signal was then collected on Tecan Spark plate reader. […] Cell growth inhibition of IC50 is calculated with the equation of Y=Bottom+(Top−Bottom)/(1+10^((LogIC50−X)*HillSlope))
Entries and their measured GI50 follow.

COMPOUND	ASSAYED_SYSTEM	GI50
C#Cc1c(F)ccc2cc(O)cc(-c3nc(OC)c4c(N5CC6CCC(C5)N6)nc(OCC5(CN6CCCC6)CC5)nc4c3F)c12	Ba/F3_KRAS^G12D cells (Homo sapiens, UniProt P01116, G12D, cells depend on it)	< 500 nM
CCc1cccc2cc(O)cc(-c3nc(OC)c4c(N5CC6CCC(C5)N6)nc(OC[C@@]56CCCN5C[C@H](F)C6)nc4c3F)c12	Ba/F3_KRAS^G12D cells (Homo sapiens, UniProt P01116, G12D, cells depend on it)	< 500 nM
C#Cc1c(F)ccc2cc(N)cc(-c3nc(OC)c4c(N5CC6CCC(C5)N6)nc(OC[C@@H]5C[C@@H](F)CN5C)nc4c3F)c12	Ba/F3_KRAS^G12D cells (Homo sapiens, UniProt P01116, G12D, cells depend on it)	< 500 nM
Oc1cc(-c2cc3nc(OC[C@@]45CCCN4C[C@H](F)C5)nc(N4CC5CCC(C4)N5)c3nn2)c2ccccc2c1	Ba/F3_KRAS^G12D cells (Homo sapiens, UniProt P01116, G12D, cells depend on it)	500 to 5000 nM
C#Cc1c(F)ccc2cccc(-c3nc(OCC)c4c(N5CC6CCC(C5)N6)nc(OC[C@]56CCCN5[C@@H](COC(=O)N(C)C)CC6)nc4c3F)c12	Ba/F3_KRAS^G12D cells (Homo sapiens, UniProt P01116, G12D, cells depend on it)	< 500 nM
CC1(O)CN2CCC[C@@]2(COc2nc(N3CC4CCC(C3)N4)c3cnc(-c4cc(O)cc5cccc(Cl)c45)c(F)c3n2)C1 (stereo partly shown)	Ba/F3_KRAS^G12D cells (Homo sapiens, UniProt P01116, G12D, cells depend on it)	> 5000 nM
Cc1cccc2cc(O)cc(-c3ncc4c(N5CC6CCC(C5)N6)nc(OC[C@@]56CCCN5C[C@H](F)C6)c(Cl)c4n3)c12	Ba/F3_KRAS^G12D cells (Homo sapiens, UniProt P01116, G12D, cells depend on it)	500 to 5000 nM
Cc1nc(-c2cc(O)cc3ccccc23)c(F)c2nc(OC[C@@]34CCCN3C[C@H](F)C4)nc(N3CC4CCC(C3)N4)c12	Ba/F3_KRAS^G12D cells (Homo sapiens, UniProt P01116, G12D, cells depend on it)	< 500 nM
c1ccc2c(-c3ncc4c(N5CC6CCC(C5)N6)nc(OCC56CCCN5CCC6)cc4n3)cccc2c1	Ba/F3_KRAS^G12D cells (Homo sapiens, UniProt P01116, G12D, cells depend on it)	500 to 5000 nM
C#Cc1c(F)ccc2cc(O)cc(-c3nc(Cl)c4c(N5CC6CCC(C5)N6)nc(OC[C@@]56CCCN5C[C@H](F)C6)nc4c3F)c12	Ba/F3_KRAS^G12D cells (Homo sapiens, UniProt P01116, G12D, cells depend on it)	< 500 nM
Cc1cc(-c2nc(OC(C)C)c3c(N4CC5CCC(C4)N5)nc(OC[C@@]45CCCN4C[C@H](F)C5)nc3c2F)c(C(F)(F)F)c(N)n1	Ba/F3_KRAS^G12D cells (Homo sapiens, UniProt P01116, G12D, cells depend on it)	< 500 nM
CCc1cccc2c(F)c(O)cc(-c3nc(C)c4c(N5CC6CCC(C5)N6)nc(OC[C@@]56CCCN5C[C@H](F)C6)nc4c3F)c12	Ba/F3_KRAS^G12D cells (Homo sapiens, UniProt P01116, G12D, cells depend on it)	< 500 nM
Clc1cccc2cccc(-c3ncc4c(N5C6CCC5CNC6)nc(OCC56CCCN5CCC6)cc4n3)c12	Ba/F3_KRAS^G12D cells (Homo sapiens, UniProt P01116, G12D, cells depend on it)	500 to 5000 nM

###

Entries and their measured pKd follow.
# ASSAYED_SYSTEM: recombinant human KRAS^G12D protein (Homo sapiens, UniProt P01116, G12D)
# METHOD_SUMMARY: Temperature-dependent Fluorescence (TdF) KRAS^G12D protein binding assay
# CONDITION_NOTES: 6 μM KRAS^G12D Protein, 10 μM compound, Sypro Orange; Kd calculated from fluorescent shift
pKd: −log10 of the molar value.
ATTRIBUTE_MEASURED: pKd

SUBSTANCE_SMILES	ASSAYED_SYSTEM	ATTRIBUTE_MEASURED	RESULT
Oc1cc(-c2nc(Cl)c3c(N4CC5CCC(C4)N5)nc(OC[C@@]45CCCN4C[C@H](F)C5)nc3c2Cl)c2c(Cl)cccc2c1	recombinant human KRAS^G12D protein (Homo sapiens, UniProt P01116, G12D)	pKd	≥ 6.30
Oc1cc(-c2ncc3c(N4CC5CCC(C4)N5)cc(OCC45CCCN4CCC5)nc3c2F)c2c(Cl)cccc2c1	recombinant human KRAS^G12D protein (Homo sapiens, UniProt P01116, G12D)	pKd	5.30 to 6.30
Cc1nc(-c2cc(O)cc3cccc(Cl)c23)c(Cl)c2nc(OC[C@@]34CCCN3C[C@H](F)C4)nc(N3CC4CCC(C3)N4)c12	recombinant human KRAS^G12D protein (Homo sapiens, UniProt P01116, G12D)	pKd	≥ 6.30
COc1nc2c(N3CC4CCC(C3)N4)nc(OC[C@@H]3CCCN3C)nc2cc1-c1cc(O)cc2ccccc12	recombinant human KRAS^G12D protein (Homo sapiens, UniProt P01116, G12D)	pKd	5.30 to 6.30
Oc1cc(-c2ncc3c(N4CC5CCC(C4)N5)nc(OCC45CCCN4CCC5)nc3c2F)c2c(Cl)cccc2c1	recombinant human KRAS^G12D protein (Homo sapiens, UniProt P01116, G12D)	pKd	≥ 6.30
O=c1cc2c(N3CC4CCC(C3)N4)nc(OCC34CCCN3CCC4)nc2cn1-c1cc(O)cc2cccc(Cl)c12	recombinant human KRAS^G12D protein (Homo sapiens, UniProt P01116, G12D)	pKd	< 5.30
c1ccc2c(-c3ncc4c(N5CCNCC5)nc(OCC56CCCN5CCC6)cc4n3)cccc2c1	recombinant human KRAS^G12D protein (Homo sapiens, UniProt P01116, G12D)	pKd	< 5.30
